molecules and their reported ED50
Test system: bronchoconstriction caused by 100 μmol/kg of histamine
Assay: Histamine-induced bronchoconstriction test (Konzett and Rossler), i.v. administration
Assay type: in vivo, guinea pigs
Conditions: Cavia porcellus, iv, 10 min, t = 10', read-out: ED50, inhibition of histamine-induced bronchoconstriction, t = 10'
Structures can show the parent of a compound that is named as a salt.
Write it as a number; the unit µmol/kg goes unstated.

In the examples that follow, each entry is paired with its recorded ED50.
C=CCN(C)[C@](C)(CO)Cc1ccc(Cl)c(Cl)c1 [Example 2, base]; 1.27
C=CCN[C@](C)(CO)Cc1ccc(Cl)c(Cl)c1 [Example 1]; 4.89
O=C1NCC2(CCN(CCc3ccccc3)CC2)O1 [Fenspiride (INN). HCl]; 4.25

Consider C=CCNC(C)(CO)Cc1ccc(Cl)c(Cl)c1 (racemic) [Comparative racemate] . Its measured ED50 is 6.65

Briefly, ED50 measured for C=CCN(C)C(C)(CO)Cc1ccc(Cl)c(Cl)c1 (racemic) [Comparative racemate. HCl] : 3.72
